Entries and their measured pKd follow.
Target Desc: equine FcRn (large alpha subunit p51) / equine beta-2-microglobulin complex, biotinylated (equine) (UniProt P30441)
Measurement Protocol: SPR (Biacore), pH 6
pKd: −log10 of the molar value.

Binder	pKd
equine IgG4 N434P (antibody, part only; not given: variable domains, not shown: another chain or arm of the molecule) constant: ASTTAPKVFPLASHSAATSGSTVALGCLVSSYFPEPVTVSWNSGALTSGVHTFPSVLQSSGLYSLSSMVTVPASSLKSQTYICNVAHPASSTKVDKKIVIKECNGGCPAECLQVGPSVFIFPPKPKDVLMISRTPTVTCVVVDVGHDFPDVQFNWYVDGVETHTATTEPKQEQFNSTYRVVSVLPIQHKDWLSGKEFKCKVNNKALPAPVERTISKPTGQPREPQVYVLAPHRDELSKNKVSVTCLVKDFYPTDIDIEWKSNGQPEPETKYSTTPAQLDSDGSYFLYSKLTVETNRWQQGTTFTCAVMHEALHPHYTEKSVSKSPGK	7.40
equine IgG1 M428E (antibody, part only; not given: variable domains, not shown: another chain or arm of the molecule) constant: ASTTAPKVFALAPGCGTTSDSTVALGCLVSGYFPEPVKVSWNSGSLTSGVHTFPSVLQSSGFYSLSSMVTVPASTWTSETYICNVVHAASNFKVDKRIEPIPDNHQKVCDMSKCPKCPAPELLGGPSVFIFPPNPKDTLMITRTPEVTCVVVDVSQENPDVKFNWYMDGVEVRTATTRPKEEQFNSTYRVVSVLRIQHQDWLSGKEFKCKVNNQALPQPIERTITKTKGRSQEPQVYVLAPHPDELSKSKVSVTCLVKDFYPPEINIEWQSNGQPELETKYSTTQAQQDSDGSYFLYSKLSVDRNRWQQGTTFTCGVEHEALHNHYTQKNVSKNPGK	7.36
equine IgG4 A426S (antibody, part only; not given: variable domains, not shown: another chain or arm of the molecule) constant: ASTTAPKVFPLASHSAATSGSTVALGCLVSSYFPEPVTVSWNSGALTSGVHTFPSVLQSSGLYSLSSMVTVPASSLKSQTYICNVAHPASSTKVDKKIVIKECNGGCPAECLQVGPSVFIFPPKPKDVLMISRTPTVTCVVVDVGHDFPDVQFNWYVDGVETHTATTEPKQEQFNSTYRVVSVLPIQHKDWLSGKEFKCKVNNKALPAPVERTISKPTGQPREPQVYVLAPHRDELSKNKVSVTCLVKDFYPTDIDIEWKSNGQPEPETKYSTTPAQLDSDGSYFLYSKLTVETNRWQQGTTFTCSVMHEALHNHYTEKSVSKSPGK	7.68
equine IgG4 T286C (antibody, part only; not given: variable domains, not shown: another chain or arm of the molecule) constant: ASTTAPKVFPLASHSAATSGSTVALGCLVSSYFPEPVTVSWNSGALTSGVHTFPSVLQSSGLYSLSSMVTVPASSLKSQTYICNVAHPASSTKVDKKIVIKECNGGCPAECLQVGPSVFIFPPKPKDVLMISRTPTVTCVVVDVGHDFPDVQFNWYVDGVETHCATTEPKQEQFNSTYRVVSVLPIQHKDWLSGKEFKCKVNNKALPAPVERTISKPTGQPREPQVYVLAPHRDELSKNKVSVTCLVKDFYPTDIDIEWKSNGQPEPETKYSTTPAQLDSDGSYFLYSKLTVETNRWQQGTTFTCAVMHEALHNHYTEKSVSKSPGK	7.46
